Catalogue of compounds with associated cell viability (log2)
System: A673/TR/shEF
Assay: cell viability (LOESS-normalised, relative to median of negative controls) (log2 ratio); higher = more viable cells (less compound effect), active = hit call of the paper (over 3 MAD below the median)
Settings: 0.25 µM; library screen: screen1; EWS-FLI1 expression: low (doxycycline-induced shRNA knockdown); treatment time: 72 h
Hit rate of the full screen: of about 3,200 compounds, about 300 (9.4%) showed activity. This excerpt belongs to a sample that is enriched for actives.
Form field (numeric): enter value without unit.

INSERT INTO assay_data (compound, recorded_metric, assay_result) VALUES
  ('NCCC(=O)c1ccccc1N', 'cell viability (log2)', 0.0335),
  ('CCN(CC)CCNC(=O)c1cc(S(C)(=O)=O)ccc1OC', 'cell viability (log2)', 0.172),
  ('O=C(/C=C/c1ccc(O)cc1O)c1ccccc1', 'cell viability (log2)', 0.0515),
  ('CC(C)C[C@H](NC(=O)[C@H](CCC(=O)O)NC(=O)CNC(=O)c1ccc(/C=C/C(=O)O)cc1)C(N)=O', 'cell viability (log2)', 0.0592);

// lookup cell viability (log2) | system=A673/TR/shEF | key= COc1ccc(CN2CCN(Cc3cccc([N+](=O)[O-])c3)CC2)cc1OC 0.032

The measurements presented in this section are drawn from the supplement of paper PMC6089552.
